assay: Dissociation constant, pKa of the compound at 50 uM by spectrophotometric analysis; type: physicochemical
Test Readout: pKa at 50 µM

                              item_smiles  test_readout  result_value
0  Nc1cc(/C=C/c2c[nH]c3ccccc23)nc2ccccc12  pKa at 50 µM           9.5

###

Item-by-item account of IC50
tested on: Plasmodium falciparum; experiment: Antimalarial activity against trophozoite stage of Plasmodium falciparum 3D7 infected in RBC assessed as growth inhibition after 5 hrs by SYBR Green-I fluorescence assay; format: functional, organism-based; conditions: 3D7, 5 h
Test Readout: IC50 (µM)

                                   compound  result_value
0  C[n+]1c(/C=C/c2c[nH]c3ccccc23)cc(N)c2ccccc21.[I-]             1
1  Cc1[nH]c2ccccc2c1/C=C/c1cc(N)c2ccccc2[n+]1C.[I-]          0.73
2  CCN(CC)CCCC(C)Nc1cc(/C=C/c2c[nH]c3ccccc23)nc2ccccc12 (stereo not given)          0.17
3  CC1(C)N=C(N)N=C(N)N1OCCCOc1cc(Cl)c(Cl)cc1Cl        0.0004
4  CN(C)c1ccc2nc3ccc(N(C)C)cc3[s+]c2c1.[Cl-] [METHYLENE BLUE ANHYDROUS]          0.03

###

system: Plasmodium falciparum; assay: Gametocytocidal activity against synchronous stage 4 to 5 of transgenic Plasmodium falciparum NF54 gametocyte harboring pfs16 promoter assessed as parasite viability after 72 hrs by MitoTracker Red CMXRos-based assay; format: functional, organism-based; details: NF54, 72 h
pIC50: −log10 of the molar value.
Test Readout: pIC50

>>> df
                                   compound  result_value
0  C[C@H]1[C@H](OC(=O)CCC(=O)O)O[C@@H]2O[C@@]3(C)CC[C@H]4[C@H](C)CC[C@@H]1[C@@]24OO3 [ARTESUNATE]          8.10
1  C[n+]1c(/C=C/c2c[nH]c3ccccc23)cc(N)c2ccccc21.[I-]          5.40
2  Cc1[nH]c2ccccc2c1/C=C/c1cc(N)c2ccccc2[n+]1C.[I-]          5.72
3    Nc1cc(/C=C/c2c[nH]c3ccccc23)nc2ccccc12          5.85

###

test system: Plasmodium falciparum; assay: Antimalarial activity against Plasmodium falciparum K1 infected in RBC assessed as growth inhibition after 48 hrs by SYBR Green-I fluorescence assay; type: functional, organism-based; conditions: K1, 48 h
Listing of recorded IC50 by entry.
Test Readout: IC50 (nM)

In [3]: df
Out[3]:
                                   compound        subject_of_test  test_readout  reading_unit  bound_sign  result_value
0                    Cc1cc(N)c2ccccc2[n+]1C  Plasmodium falciparum          IC50            nM           >          5000
1  CCCC[n+]1c(/C=C/c2c[nH]c3ccccc23)cc(N)c2ccccc21  Plasmodium falciparum          IC50            nM           =           440
2  C[n+]1c(/C=C/c2n[nH]c3ccccc23)cc(N)c2ccccc21.[I-]  Plasmodium falciparum          IC50            nM           =           230
3  CNc1cc(/C=C/c2c(C)[nH]c3ccccc23)[n+](C)c2ccccc12  Plasmodium falciparum          IC50            nM           =          1600
4  C[n+]1c(/C=C/c2c[nH]c3ncccc23)cc(N)c2ccccc21.[I-]  Plasmodium falciparum          IC50            nM           =           250
5  CCN(CC)CCCC(C)Nc1cc(/C=C/c2c[nH]c3ccccc23)nc2ccccc12 (configuration not stated)  Plasmodium falciparum          IC50            nM           =           330
6    Nc1cc(/C=C/c2c[nH]c3ccccc23)nc2ccccc12  Plasmodium falciparum          IC50            nM           =           390

###

test system: Plasmodium falciparum; test: Resistant index, ratio of IC50 for Plasmodium falciparum K1 to IC50 for Plasmodium falciparum 3D7; assay type: functional
Here, each record is paired with measured Ratio IC50 data.
Test Readout: Ratio IC50

>>> df
                                   molecule  result_value
0  C[n+]1c(/C=C/c2c[nH]c3ncccc23)cc(N)c2ccccc21.[I-]           0.3
1    Nc1cc(/C=C/c2n[nH]c3ccccc23)nc2ccccc12             2
2  CCN(CC)CCCC(C)Nc1cc(/C=C/c2c[nH]c3ccccc23)nc2ccccc12 (centres undefined)             3
3  C[n+]1c(/C=C/c2c[nH]c3ccccc23)cc(N)c2ccccc21.[I-]           0.6

Ref: ChEMBL document CHEMBL2417386
